Target protein (sequence): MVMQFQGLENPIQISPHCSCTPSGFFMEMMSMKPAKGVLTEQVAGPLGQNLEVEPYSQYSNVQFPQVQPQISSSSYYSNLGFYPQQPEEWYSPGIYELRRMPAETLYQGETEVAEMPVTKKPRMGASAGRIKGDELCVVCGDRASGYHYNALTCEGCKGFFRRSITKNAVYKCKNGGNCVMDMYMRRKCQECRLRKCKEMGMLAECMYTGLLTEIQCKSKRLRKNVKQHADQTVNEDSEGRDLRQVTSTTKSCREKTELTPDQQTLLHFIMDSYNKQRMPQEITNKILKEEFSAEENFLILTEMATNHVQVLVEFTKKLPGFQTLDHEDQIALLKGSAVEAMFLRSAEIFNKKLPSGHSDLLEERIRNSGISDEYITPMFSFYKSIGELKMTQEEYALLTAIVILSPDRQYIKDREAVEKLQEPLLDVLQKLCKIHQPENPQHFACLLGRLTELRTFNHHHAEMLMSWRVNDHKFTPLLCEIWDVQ
pEC50: −log10 of the molar value.
Quick rule: pEC50 of at least 6 means Met, below that means Not met.

given-smiles: CCOc1ccc(C(=O)NCc2ccc(NS(C)(=O)=O)cc2Cl)cc1
discrete-label: Not met
--
given-smiles: CS(=O)(=O)Nc1ccc(CNC(=O)c2ccc(C34CC(C3)C4)cc2)c(Cl)c1
discrete-label: Met
--
given-smiles: CS(=O)(=O)Nc1ccc(CNC(=O)c2ccc(CC(F)(F)F)cc2)c(Cl)c1
discrete-label: Not met
--
given-smiles: CCS(=O)(=O)Nc1ccc(CNC(=O)c2ccc(C(C)(C)C)cc2)c(Cl)c1
discrete-label: Met
--
given-smiles: CS(=O)(=O)Nc1ccc(CNC(=O)c2ccc(N3CCCCC3)cc2)c(Cl)c1
discrete-label: Met
--
given-smiles: CS(=O)(=O)Nc1ccc(CNC(=O)c2ccc(C(F)(F)C(F)(F)F)cc2)c(Cl)c1
discrete-label: Not met
--
given-smiles: CC(C)(C)c1ccc(C(=O)NCc2ccc(N)cc2Cl)cc1
discrete-label: Met

# next compound below
For this compound, is measured pEC50 6 or higher? CC(C)(O)c1ccc(C(=O)NCc2ccc(NS(C)(=O)=O)cc2Cl)cc1 Met

Cited source: ChEMBL document CHEMBL5034009
